# System: TMEM97 KO HeLa cells
# TEST DESCRIPTION: Cell viability assay (CellTiter Glo), TMEM97 KO cells
# Assay type: cell-based, human
# CONDITION: Homo sapiens, 24 h, mean ± SD
As shown below, each of these molecules has a reported EC50 value.
State the answer as a number, implicitly in µM.

Answered cases to consult:
| MOLECULE | READOUT KIND | UNIT STRING | ASSAY VALUE |
| --- | --- | --- | --- |
| COc1cccc2c1CCCC2CCCN1CCN(C2CCCCC2)CC1 (stereo not drawn) | EC50 | µM | 59.8 |
| Fc1ccc(-n2cc(CCCCN3CCC4(CC3)OCc3ccccc34)c3ccccc32)cc1 | EC50 | µM | 10.3 |

Exercise: Dear colleague, I am looking for the recorded EC50 of the following molecule: COc1ccc(C)cc1NC(=O)OC1CC2CCCC(C1)N2CCCCCCCCCCN (stereo not drawn)
Solution: 30.4

###

pEC50 values, listed per item
# Tested on: TMEM97/PGRMC1 double KO HeLa cells
# TEST DESCRIPTION: Cell viability assay (CellTiter Glo), double KO cells
# Assay type: cell-based, human
# CONDITION: Homo sapiens, 24 h, mean ± SD
pEC50: −log10 of the molar value.

Recorded pEC50, per entry:
| MOLECULE | SYSTEM | READOUT KIND | ASSAY VALUE |
| --- | --- | --- | --- |
| COc1cc2c(cc1OC)CN(CCCCNC(=O)c1cc(C)ccc1OCCF)CC2 [ISO-1] | TMEM97/PGRMC1 double KO HeLa cells | pEC50 | < 3.70 |
| COc1cc2c(cc1OC)CN(CCCCNC(=O)c1cc(C)ccc1OC)CC2 [RHM-1] | TMEM97/PGRMC1 double KO HeLa cells | pEC50 | < 3.70 |

Attention now turns to another entry.
Exercise: What reported pEC50 corresponds to COc1cc2c(cc1OC)CN(CCCCNC(=O)c1cc(I)cc(OC)c1OC)CC2 [RHM-4] on TMEM97/PGRMC1 double KO HeLa cells?
Solution: < 3.70

###

# SYSTEM: sigma-1 receptors (Cavia porcellus)
# Construct: 100 μg guinea pig brain membrane homogenates; from tissue; host or cells: guinea pig brain membrane homogenates
# Sequence (Q60492 whole entry): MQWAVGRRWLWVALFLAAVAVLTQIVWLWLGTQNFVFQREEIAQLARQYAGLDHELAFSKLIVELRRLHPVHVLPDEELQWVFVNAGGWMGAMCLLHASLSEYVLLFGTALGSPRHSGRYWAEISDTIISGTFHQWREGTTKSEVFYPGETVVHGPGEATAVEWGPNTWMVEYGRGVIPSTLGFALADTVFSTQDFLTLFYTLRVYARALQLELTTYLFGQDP
# TEST DESCRIPTION: Sigma-1 receptor competition binding assay with [3H](+)-pentazocine
# Parameters: species or system guinea pig
# CONDITION: guinea pig brain membranes, 5 nM [3H](+)-pentazocine, mean ± SD; read-out: Ki for sigma-1 receptors
READOUT KIND: pKi
Scale explanation: pKi corresponds to minus log10 of a concentration expressed in moles per litre.

| COMPOUND | SYSTEM | ASSAY VALUE |
| --- | --- | --- |
| COc1ccc(C)cc1NC(=O)OC1CC2CCCC(C1)N2CCCCCCCCCCNc1ccc([N+](=O)[O-])c2nonc12 (stereo not shown) | sigma-1 receptors (Cavia porcellus) | 5.71 |
| COc1cc2c(cc1OC)CN(CCCCNC(=O)c1cc(C)ccc1OCCF)CC2 | sigma-1 receptors (Cavia porcellus) | 7.62 |
| COc1cc2c(cc1OC)CN(CCCCNC(=O)c1cc(I)cc(OC)c1OC)CC2 | sigma-1 receptors (Cavia porcellus) | 5.44 |

Attention now turns to another entry.
Exercise: Can you look up the measured pKi of COc1ccc(C)cc1NC(=O)OC1CC2CCCC(C1)N2CCCCCCCCCCN (stereo not shown) for me?
Solution: 6.56
